Where these numbers come from: patent US20130266566A1

Target: T1, mouse PAI-1 (mouse, UniProt P22777 24-401)
T1 sequence: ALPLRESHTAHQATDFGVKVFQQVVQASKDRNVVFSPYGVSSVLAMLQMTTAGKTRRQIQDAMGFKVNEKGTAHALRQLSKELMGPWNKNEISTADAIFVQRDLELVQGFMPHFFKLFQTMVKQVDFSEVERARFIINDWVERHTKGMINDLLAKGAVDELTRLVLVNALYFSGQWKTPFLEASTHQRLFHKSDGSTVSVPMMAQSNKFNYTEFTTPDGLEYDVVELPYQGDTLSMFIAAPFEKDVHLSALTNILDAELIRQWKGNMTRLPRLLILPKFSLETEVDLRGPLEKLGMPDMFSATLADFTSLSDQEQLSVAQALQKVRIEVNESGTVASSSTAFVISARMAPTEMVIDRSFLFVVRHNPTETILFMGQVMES
Test: cell-based or functional assay
readout: Chromogenic IC50 ratio mouse/human (fold)
Answer with a number only, understood to be in fold.

Q: Give Chromogenic IC50 ratio mouse/human for the following binder: Antibody 05 scFv (scFv) QVQLQQSGAEVKKPGSSVKVSCKASGGTFSSYAISWVRQAPGQGLEWMGGIIPTFSTANYAQKFRGRVTITADESTSTAYMELSGLRSEDTAVYYCAREKRQWLEGHFDYWGRGTPVTVSSDIQMTQSPSFLSASIGDRVTITCRASEGIYHQLAWYQQKPGKAPKLLIYRASSLASGAPSRFSGSGSGTDFTLTISSLQPDDFATYYCQQYSNYPLTFGGGTKLEIK
Result: 144

Q: Answer with the recorded Chromogenic IC50 ratio mouse/human for the binder listed here: Antibody 15 scFv (scFv) QVQLQQSGAEVKKPGSSVKVSCKASGGTFSSYAISWVRQAPGQGLEWMGGIIPTFGTANYAQKFQGRVTITADESTSTAYMELSGLRSEDTAVYYCAREKRQWLEGHFDYWGRGTPVTVSSDIQMAQSPSFLSASIGDRVTITCRASEGIYHNLAWYQQKPGKAPKLLIYRASSLASGAPSRFSGSGSGTDFTLTISSLQPDDFATYYCQQYSNYPLTFGGGTKLEIR
Result: 9.3

Q: Read off the recorded Chromogenic IC50 ratio mouse/human for Antibody 04 scFv (scFv) QVRLQQSGAEVKKPGSSVKVSCKASGGTFSSYAISWVRQAPGQGLEWMGGIIPTFGTANYAQKFRGRVTITANESTSTAYMELSGLRSEDTAVYYCAREKRQWLEGRFDYWGRGTLVTVSSDIQMTQSPSFLSASIGDRITITCRASEGIYHSLAWYQQKPGKAPKLLIHRATSLASGTPSRFGGSGSGTDFALTISSLQPDDFATYYCQQYSNYPLTFGGGTKLEIK
Result: 39.9
